Target: fusion protein PRS
Sequence (chain, as listed by the source): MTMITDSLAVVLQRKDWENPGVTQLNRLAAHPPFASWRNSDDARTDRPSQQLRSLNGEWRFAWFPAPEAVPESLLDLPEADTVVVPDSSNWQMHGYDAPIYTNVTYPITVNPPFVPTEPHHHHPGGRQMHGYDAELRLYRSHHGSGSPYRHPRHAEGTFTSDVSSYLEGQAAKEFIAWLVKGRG
RECORDED ENDPOINT: relative cleavage efficiency
Write the quantity with the unit trailing the number.

relative cleavage efficiency measured on OmpT protease variant OmpT D97T (protein) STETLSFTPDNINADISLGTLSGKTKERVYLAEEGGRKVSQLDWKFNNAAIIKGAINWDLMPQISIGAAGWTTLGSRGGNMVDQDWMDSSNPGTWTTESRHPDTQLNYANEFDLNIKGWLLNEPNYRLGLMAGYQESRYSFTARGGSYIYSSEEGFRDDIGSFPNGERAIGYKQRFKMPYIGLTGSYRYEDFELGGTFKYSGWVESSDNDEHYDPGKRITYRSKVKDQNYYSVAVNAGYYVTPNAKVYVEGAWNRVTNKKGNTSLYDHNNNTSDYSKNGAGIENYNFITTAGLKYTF = 7.4%
